pKi: −log10 of the molar value.
Reported pKi on Tyrosine-protein kinase JAK3 (Homo sapiens) for assorted molecules, compiled from publications.
quantity-name: pKi

{"molecule": "Nc1nn2cc(-c3ccncc3)cnc2c1-c1cccc(Br)n1", "value-measured": "< 5.30"}
{"molecule": "O=C(NCC(F)(F)F)[C@@H]1C[C@@H](F)CN1c1nc(-c2c[nH]c3ncncc23)ncc1F", "value-measured": "5.30 to 6.30"}
{"molecule": "CN(C)CCNc1ccc(-c2cnc3[nH]cc(-c4nncn4-c4cccc(F)c4F)c3c2)cn1", "value-measured": "4.90 to 6.00"}
{"molecule": "C1=C(c2ncnc3[nH]ccc23)CCCC1", "value-measured": "> 6.30"}
{"molecule": "Nc1nn2cc(-c3ccc(N4CCN(c5cnccn5)CC4)nc3)cnc2c1-c1ccccn1", "value-measured": "< 5.30"}
{"molecule": "C[C@H](Nc1cc(-c2c(N)nn3cccnc23)nc(OCC2CCOC2)n1)c1ccc(F)cc1F (some centres unmarked)", "value-measured": "7.00 to 8.00"}
{"molecule": "CNCCOc1nc(N[C@@H](C)c2ccc(F)cc2F)cc(-c2cnn3cccnc23)n1", "value-measured": "7.00 to 8.00"}
{"molecule": "Nc1nn2cc(-c3cccnc3N3CCN(Cc4ccncc4)CC3)cnc2c1-c1ccccn1", "value-measured": "< 5.30"}

* * *

Compiled notes: published Ki values involving UniProtKB P52333.

{"compound": "O=C(NCC(F)(F)F)[C@H]1CCCN1c1ccnc(-c2ccc(=O)[nH]c2)n1", "system-name": "UniProtKB P52333", "Ki": "10000 to 50000 nM"}
{"compound": "Nc1[nH]c2ncccc2c1-c1oncc1-c1cccc(F)c1F", "system-name": "UniProtKB P52333", "Ki": "1000 to 12500 nM"}
{"compound": "Oc1ccc(C2Nc3ccccc3-c3ccnc4[nH]cc2c34)cc1Br (centres unmarked)", "system-name": "UniProtKB P52333", "Ki": "≤ 250 nM"}
{"compound": "Fc1cccc(-n2cnnc2-c2c[nH]c3ncc(-c4ccc(N5CCNCC5)nc4)cc23)c1F", "system-name": "UniProtKB P52333", "Ki": "1000 to 12500 nM"}
{"compound": "C[C@H](Nc1cc(-c2cnn3cccnc23)nc(NC(=O)CCN2CCCC2=O)n1)c1ccc(F)cc1F", "system-name": "UniProtKB P52333", "Ki": "100 to 500 nM"}
{"compound": "Fc1cccc(-c2cnoc2-c2c[nH]c3ncc(Br)cc23)c1F", "system-name": "UniProtKB P52333", "Ki": "< 200 nM"}
{"compound": "C[C@H](Nc1cc(-c2c(N)nn3cccnc23)nc(N2CC[C@@H](F)C2)n1)c1ccc(F)cc1", "system-name": "UniProtKB P52333", "Ki": "100 to 500 nM"}
{"compound": "C=CCN(CC=C)C(=O)c1cc(-c2ncnc3[nH]ccc23)c[nH]1", "system-name": "UniProtKB P52333", "Ki": "< 100 nM"}

* * *

// read-out pKi, gathered for Tyrosine-protein kinase JAK3 (Homo sapiens, UniProt P52333) from published studies
pKi: −log10 of the molar value.
quantity-name: pKi

{"compound": "Nc1nc(Nc2ccc([C@H]3CC[C@H](N4CCOCC4)CC3)cc2)nn1-c1ncc(F)c(N2CCC[C@@H]2C(=O)NCC(F)(F)F)n1", "value-measured": "5.00 to 6.00"}
{"compound": "COC(=O)C1CCN(c2ncccc2-c2cnc3c(-c4ccccn4)c(N)nn3c2)CC1", "value-measured": "< 5.30"}
{"compound": "Fc1cccc(-n2cnnc2-c2c[nH]c3ncc(-c4ccc(N5CCCC5)nc4)cc23)c1F", "value-measured": "6.00 to 6.70"}
{"compound": "COc1cc(Nc2ncn(-c3ccccc3)n2)cc(OC)c1OC", "value-measured": "6.00 to 8.00"}
{"compound": "Fc1cccc(-c2cnoc2-c2c[nH]c3nc(Cl)c(-c4ccncc4)cc23)c1F", "value-measured": "4.90 to 6.00"}
{"compound": "Fc1ccc(F)c(C2Nc3ccccc3-c3c(Cl)cnc4[nH]cc2c34)c1F (centres unmarked)", "value-measured": "5.60 to 6.60"}
{"compound": "Nc1nn2cc(CCCN3CCCCC3)cnc2c1-c1ccccn1", "value-measured": "< 5.30"}
{"compound": "CN(CC1OCCO1)C(=O)c1cccc(-c2cnc3c(-c4ccccn4)c(N)nn3c2)n1", "value-measured": "5.30 to 6.30"}
